# System Tested: recombinant human PAI-1 (Homo sapiens)
# Measurement Protocol: PAI-1 inhibitory activity, Test Method A (tPA fluorogenic substrate, Tris buffer pH8.0, 37 C)
# Type: biochemical
# Measurement Context: 25 μM test compound; Test Method A
Recorded Metric: Inhibitory Ratio at 25 μM (%)

* COc1cc(C=C2SC(=O)N(Cc3ccc(Cl)c(Cl)c3)C2=O)cc(C(=O)Nc2ccc(O)c(O)c2)c1O [compound 349] | 87
* O=C(Nc1ccc(O)cc1)c1cc(C=C2SC(=O)N(Cc3ccc(Cl)c(Cl)c3)C2=O)ccc1O [compound 354] | 72
* O=C(Nc1ccc(O)c(O)c1)c1cc(C=C2SC(=O)N(Cc3cc(F)cc(F)c3)C2=O)ccc1O [compound 386] | 98
* COc1cc(C=C2C(=O)N(c3ccc(Cl)c(Cl)c3)N=C2C(C)C)cc([N+](=O)[O-])c1O [compound 561] | 91
* COc1cc(C=C2SC(=O)N(Cc3ccc(Cl)c(Cl)c3)C2=O)cc(C(=O)O)c1O [compound 345] | 89
* COc1cc(C=C2C(=O)N(c3cc(Cl)cc(Cl)c3)N=C2C(C)C)cc(Br)c1O [compound 539] | 80

* * *

# System Tested: recombinant human PAI-1 (Homo sapiens, UniProt P05121)
# Sequence (P05121 24-402): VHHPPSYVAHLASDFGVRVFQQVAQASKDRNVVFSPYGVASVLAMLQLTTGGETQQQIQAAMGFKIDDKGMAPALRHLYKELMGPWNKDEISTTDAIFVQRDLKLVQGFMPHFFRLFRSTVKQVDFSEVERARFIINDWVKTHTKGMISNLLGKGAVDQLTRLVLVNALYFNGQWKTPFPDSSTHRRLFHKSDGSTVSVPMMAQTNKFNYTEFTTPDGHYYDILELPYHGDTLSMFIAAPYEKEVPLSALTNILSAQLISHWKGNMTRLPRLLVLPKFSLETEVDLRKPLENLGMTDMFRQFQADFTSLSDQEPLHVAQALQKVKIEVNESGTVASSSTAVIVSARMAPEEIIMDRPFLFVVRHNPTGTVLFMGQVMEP
# Measurement Protocol: PAI-1 inhibitory activity, Test Method A (tPA fluorogenic substrate, Tris buffer pH8.0, 37 C)
# Format: biochemical
# Measurement Context: 25 μM test compound; Test Method A
# Method: To this solution, 50 μL solution of 400 μM fluogenic substrate for tPA (Pyr-Gly-Arg-MCA, Peptide Institute, Inc.) adjusted with the same buffer was added, and reacted for 30 minutes at 37° C. The reaction was stopped by adding 50 μL of 2% acetic acid. Fluorescence was measured at the excitation wavelength=360 nm, emission wavelength=460 or 465 nm using a microplate reader (SPECTRAFLUOR or GENios) by TECAN. […]
Attribute: Inhibitory Ratio at 25 μM (%)
Recorded Metric: Inhibitory Ratio at 25 μM (%)

* COc1ccc(C=Cc2ccccc2)cc1C=C1C(=O)N(c2ccc(C(=O)O)cc2)N=C1C(C)C [compound 535] | 75
* O=C(Nc1cccc(OC(F)(F)F)c1)c1cc(C=C2SC(=O)N(Cc3ccc(Cl)c(Cl)c3)C2=O)ccc1O [compound 414] | 91
* CC(C)C1=NN(c2cc(Cl)cc(Cl)c2)C(=O)C1=Cc1cc(O)c(O)cc1O [compound 504] | 89
* COc1ccc(C=C2SC(=O)N(Cc3ccc(Cl)c(Cl)c3)C2=O)cc1O [compound 323] | 21
* CC(C)C1=NN(c2cc(Cl)cc(Cl)c2)C(=O)C1=Cc1ccc(O)cc1O [compound 505] | 93
* O=C(Nc1ccc(O)c(O)c1)c1cc(C=C2SC(=O)N(Cc3ccc([N+](=O)[O-])cc3)C2=O)ccc1O [compound 378] | 86
* CC(C)C1=NN(c2ccc(C=Cc3ccccn3)cc2)C(=O)C1=Cc1cc(C=Cc2ccccc2)ccc1O [compound 544] | 41

* * *

# System Tested: recombinant human PAI-1 (Homo sapiens, UniProt P05121)
# Measurement Protocol: PAI-1 inhibitory activity, Test Method A (tPA fluorogenic substrate, Tris buffer pH8.0, 37 C)
# Assay type: biochemical
# Measurement Context: test compound 25 μM; Test Method A
Property: Inhibitory Ratio at 25 μM (%); scope: individual compounds
Recorded Metric: Inhibitory Ratio at 25 μM (%)

- CC1=NN(c2ccc(Cl)c(C(=O)O)c2)C(=O)C1=Cc1ccc(-c2cccc(F)c2)o1 [compound 192]: 44
- COC(=O)c1cccc(N2N=C(C(C)C)C(=Cc3cc(Br)cc(Br)c3O)C2=O)c1 [compound 108]: 27
- O=C1SC(=Cc2cc(Br)cc(Br)c2O)C(=O)N1Cc1cc(C(F)(F)F)cc(C(F)(F)F)c1 [compound 2]: 52
- COC(=O)c1cccc(N2N=C(C(C)C)C(=Cc3ccc(Br)o3)C2=O)c1 [compound 205]: 35
- CCOC1=NN(c2ccc([N+](=O)[O-])cc2)C(=O)C1=Cc1cc(O)c(O)cc1O [compound 156]: 70
- CC1=NN(c2cccc(Cl)c2)C(=O)C1=Cc1cc(O)c(O)c(O)c1 [compound 123]: 67
- CC(C)C1=NN(c2ccc(Cl)nc2)C(=O)C1=Cc1cc(O)c(O)cc1O [compound 222]: 79
- CC1=NN(c2ccc([N+](=O)[O-])cc2)C(=O)C1=Cc1cc(O)c(O)c(O)c1 [compound 135]: 94
- CCOC1=NN(c2ccc([N+](=O)[O-])cc2)C(=O)C1=Cc1cc(O)c(O)cc1O [compound 223]: 88
- CCOC1=NN(c2ccc([N+](=O)[O-])cc2)C(=O)C1=Cc1ccc(C)c(OC)c1 [compound 213]: 40
- CC(=O)Nc1ccc(C=C2SC(=O)N(Cc3ccc(Cl)c(Cl)c3)C2=O)cc1 [compound 79]: 65
- COC(=O)c1cccc(N2N=C(C(F)(F)F)C(=Cc3ccc(SCCN(C)C)s3)C2=O)c1 [compound 178]: 40
- CC1=NN(c2ccc(Cl)c(Cl)c2)C(=O)C1=Cc1ccc(O)c(O)c1 [compound 152]: 89
- CC1=NN(c2ccc(Cl)c(C(=O)O)c2)C(=O)C1=Cc1ccc(-c2ccccc2Cl)o1 [compound 188]: 35
- O=C(O)c1cccc(N2N=C(c3ccccc3)C(=Cc3ccc(-c4cc(Cl)cc(Cl)c4)o3)C2=O)c1 [compound 216]: 94
- O=C(O)c1cccc(N2N=C(c3ccccc3)C(=Cc3ccccc3)C2=O)c1 [compound 175]: 35
- CC1=NN(c2ccc(Cl)cc2)C(=O)C1=Cc1cc(O)c(O)cc1O [compound 224]: 69
- COC(=O)c1cccc(N2N=C(C(C)C)C(=Cc3ccc(Cl)c(Cl)c3)C2=O)c1 [compound 210]: 49
- O=C1C(=Cc2ccc(Br)o2)C(c2ccccc2)=NN1c1cccc([N+](=O)[O-])c1 [compound 199]: 85
- CC1=NN(c2cccc(Cl)c2)C(=O)C1=Cc1cc(O)c(O)cc1O [compound 158]: 72
- COC(=O)c1cccc(N2N=C(c3ccccc3)C(=Cc3ccc(Br)o3)C2=O)c1 [compound 194]: 84

* * *

Inhibitory Ratio at 25 μM (%) for assorted compounds
# System Tested: recombinant human PAI-1 (Homo sapiens)
# Measurement Protocol: PAI-1 inhibitory activity, Test Method A (tPA fluorogenic substrate, Tris buffer pH8.0, 37 C)
# Format: biochemical
# Measurement Context: test compound 25 μM; Test Method A
Recorded Metric: Inhibitory Ratio at 25 μM (%)

- Cc1ccc(N2N=C(C(C)C)C(=Cc3cccc(O)c3)C2=O)cc1Cl: 80
- COc1cc(CN2C(=O)SC(=Cc3cccc(O)c3O)C2=O)cc(OC)c1: 71
- CC(C)C1=NN(c2cc(Cl)cc(Cl)c2)C(=O)C1=Cc1cccc(C(=O)O)c1: 82
- O=C1SC(=Cc2cccc(O)c2O)C(=O)N1Cc1ccc([N+](=O)[O-])cc1: 86
- COc1ccc(OC)c(N2C(=O)C(=Cc3ccc(O)c(O)c3)SC2=S)c1: 74

* * *

# Inhibitory Ratio at 25 μM (%) values compiled below
# System Tested: recombinant human PAI-1 (Homo sapiens, UniProt P05121)
# Measurement Protocol: PAI-1 inhibitory activity, Test Method A (tPA fluorogenic substrate, Tris buffer pH8.0, 37 C)
# Type: biochemical
# Measurement Context: 25 μM test compound; Test Method A
Recorded Metric: Inhibitory Ratio at 25 μM (%)

• O=C(Nc1cc(C(F)(F)F)ccc1C(F)(F)F)c1cc(C=C2SC(=O)N(Cc3ccc(Cl)c(Cl)c3)C2=O)ccc1O = 58
• O=C(O)c1ccc(N2N=C(c3cc(Br)ccc3O)C(=Cc3ccc(Cl)c(Cl)c3)C2=O)cc1 = 96
• CCOC(=O)CCCC1=NN(c2ccc(Cl)cc2)C(=O)C1=Cc1cc(Br)ccc1O = 86

* * *

Parameter: Inhibitory Ratio at 25 μM (%). Scope: all listed entries.
# System Tested: recombinant human PAI-1 (Homo sapiens)
# Measurement Protocol: PAI-1 inhibitory activity, Test Method A (tPA fluorogenic substrate, Tris buffer pH8.0, 37 C)
# Format: biochemical
# Measurement Context: 25 μM test compound; Test Method A
# Description: To this solution, 50 μL solution of 400 μM fluogenic substrate for tPA (Pyr-Gly-Arg-MCA, Peptide Institute, Inc.) adjusted with the same buffer was added, and reacted for 30 minutes at 37° C. The reaction was stopped by adding 50 μL of 2% acetic acid. Fluorescence was measured at the excitation wavelength=360 nm, emission wavelength=460 or 465 nm using a microplate reader (SPECTRAFLUOR or GENios) by TECAN. […]
Recorded Metric: Inhibitory Ratio at 25 μM (%)

- COc1c(O)cccc1C=C1SC(=O)N(Cc2ccc(Cl)c(Cl)c2)C1=O: 34
- O=C(Nc1ccc2c(c1)OCO2)c1cc(C=C2SC(=O)N(Cc3ccc(Cl)c(Cl)c3)C2=O)ccc1O: 86
- COC(=O)c1ccc(NC(=O)c2cc(C=C3SC(=O)N(Cc4ccc(Cl)c(Cl)c4)C3=O)ccc2O)cc1O: 69
- O=C(Nc1cccc([N+](=O)[O-])c1)c1cc(C=C2SC(=O)N(Cc3ccc(Cl)c(Cl)c3)C2=O)ccc1O: 87
- CCOC(=O)CCC1=NN(c2ccccc2)C(=O)C1=Cc1ccc2c(c1)OCO2: 52
- CC(C)C1=NN(c2ccc(C=Cc3ccccn3)cc2)C(=O)C1=Cc1cc(O)c(O)cc1O: 74
- COC(=O)c1cc(C=C2SC(=O)N(Cc3ccc(Cl)cc3Cl)C2=O)cc(OC)c1O: 83
- CCOC1=NN(c2ccc([N+](=O)[O-])cc2)C(=O)C1=Cc1cc(C(C)(C)C)ccc1O: 32
- COc1ccc(C(=O)Nc2cc(C=C3SC(=O)N(Cc4ccc(Cl)c(Cl)c4)C3=O)ccc2OC)cc1: 27
- O=C1SC(=Cc2cc(O)c3c(c2)OCO3)C(=O)N1Cc1ccc(Cl)c(Cl)c1: 65
- O=C1SC(=Cc2ccc(F)c(O)c2)C(=O)N1Cc1ccc(Cl)c(Cl)c1: 66
- CC(C)C1=NN(c2ccc(C(=O)O)cc2)C(=O)C1=Cc1cc(C=Cc2ccccc2)ccc1O: 64
- O=C(CCc1ccccc1)Nc1ccc(CN2C(=O)SC(=Cc3ccc(O)c(O)c3)C2=O)cc1: 39
- O=C(Nc1cccc2c1OC(F)(F)O2)c1cc(C=C2SC(=O)N(Cc3ccc(Cl)c(Cl)c3)C2=O)ccc1O: 57
- COC(=O)c1cccc(NC(=O)c2cc(C=C3SC(=O)N(Cc4ccc(Cl)c(Cl)c4)C3=O)cc(O)c2O)c1: 95
- O=C(Nc1ccc2c(c1)OCO2)c1cc(C=C2SC(=O)N(Cc3ccc(Cl)c(Cl)c3)C2=O)cc(O)c1O: 82
- COc1ccc(-c2cc(C=C3SC(=O)N(Cc4ccc(Cl)c(Cl)c4)C3=O)ccc2OC)cc1: 51
- O=C(O)c1cc(C=C2SC(=O)N(Cc3ccc(Cl)c(Cl)c3)C2=O)ccc1O: 95

The origin of these recorded values is patent US20070276011A1.
